Tgt: T1, 4H850-AA
T1 chain: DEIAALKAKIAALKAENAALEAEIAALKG
Assay Name: two-hybrid library CCmax;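 also: natural log of median RNA to DNA barcode read ratio; higher means stronger binding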
Measurement Setup: mean of both orientations
Returns fulfilled if the recorded interaction score is greater than or equal to 0.4, and not fulfilled otherwise.

# Binder, Cat
measured = [
    ("DEIAALEAENAALEAKIAALKAENAALEG [4H171-AA]", "not fulfilled"),
    ("DKIAALEAEIAALKAKNAALEAEIAALKG [4H2162-AA]", "fulfilled"),
    ("DKIAALKAKNAALKAEIAALEAKNAALKG [4H3016-AA]", "not fulfilled"),
    ("DEIAALEAKNAALKAKIAALEAKIAALEG [4H485-AA]", "fulfilled"),
    ("DKNAALKAEIAALKAKNAALEAEIAALEG [4H3697-AA]", "not fulfilled"),
    ("DEIAALKAKIAALEAENAALKAKIAALEG [4H797-AA]", "fulfilled"),
    ("DENAALEAKIAALEAENAALKAKIAALKG [4H1310-AA]", "fulfilled"),
    ("DEIAALKAEIAALEAENAALEAKNAALKG [4H536-AA]", "fulfilled"),
    ("DKNAALEAEIAALEAKIAALKAKNAALKG [4H3120-AA]", "not fulfilled"),
    ("DKIAALEAENAALKAEIAALKAKIAALEG [4H2253-AA]", "not fulfilled"),
]

Every entry's value here was drawn from paper PMC10397247.
